Test system: SNB-75
Experiment: NCI anticancer screen, SNB-75
Assay type: cell-based, human
Details: Homo sapiens; SNB-75, CNS, 48 h
readout.name: GI50

// worked examples, GI50 included
molecule: COc1cc(CNc2ccc(C(=O)OC(C)(C)C)cc2)cc(CN2CCN(c3ccccn3)CC2)c1O [Compound Q012145T]
GI50: > 100 µM
//
molecule: CCOC(=O)[C@H](Cc1ccccc1)NCc1cc(CN2CCN(c3ccccn3)CC2)c(O)c(OC)c1 [Compound Q012147T]
GI50: 56.6 µM
//
molecule: CCOC(=O)c1ccc(CNCc2cc(CN3CCN(c4ccccn4)CC3)c(O)c(OC)c2)cc1 [Compound Q012135T]
GI50: 17.6 µM
//
molecule: CC(C)(C)OC(=O)Nc1ccc(O)c(C(=O)NCCOC(=O)NCCNC(=O)c2cc(OCc3ccccc3)ccc2OCc2ccccc2)c1
GI50: 68.9 µM

Pending molecule:
IN: Need GI50 of `COc1cc(CNCC2CCN(C(=O)OC(C)(C)C)CC2)cc(CN2CCN(c3ccccn3)CC2)c1O` , thanks.
OUT: 22.3 µM

----------
SK-MEL-28 data, read-out GI50
Please state the figure in µM; there is no need to write the unit.

compound: CCOC(=O)c1ccc(CNCc2cc(CN3CCN(c4ccccn4)CC3)c(O)c(OC)c2)cc1 [Compound Q012135T]
reported.value: 15.1

Query compound follows.
IN: What does the record list as GI50 for `COc1cc(CNCC2CCN(C(=O)OC(C)(C)C)CC2)cc(CN2CCN(c3ccccn3)CC2)c1O` ?
OUT: 16.8

----------
System: A498
// reported GI50 for each item listed
Give just the numeric value; µM need not be written.

compound: CCOC(=O)c1ccc(CNCc2cc(CN3CCN(c4ccccn4)CC3)c(O)c(OC)c2)cc1 [Compound Q012135T]
reported.value: 25.8
//
compound: COc1cc(CNc2ccc(C(=O)OC(C)(C)C)cc2)cc(CN2CCN(c3ccccn3)CC2)c1O [Compound Q012145T]
reported.value: 16.2

Then this compound:
IN: I'm curious: which GI50 was measured for COc1cc(CNCC2CCN(C(=O)OC(C)(C)C)CC2)cc(CN2CCN(c3ccccn3)CC2)c1O [Compound Q012132] tested on A498?
OUT: 17.8

----------
// values below are reported Percent PAI-1 inhibition
Target: wildtype human PAI-1 (Homo sapiens)
Construct: purchased Molecular Innovations Lot# HWT-804
Sequence (P05121 24-402): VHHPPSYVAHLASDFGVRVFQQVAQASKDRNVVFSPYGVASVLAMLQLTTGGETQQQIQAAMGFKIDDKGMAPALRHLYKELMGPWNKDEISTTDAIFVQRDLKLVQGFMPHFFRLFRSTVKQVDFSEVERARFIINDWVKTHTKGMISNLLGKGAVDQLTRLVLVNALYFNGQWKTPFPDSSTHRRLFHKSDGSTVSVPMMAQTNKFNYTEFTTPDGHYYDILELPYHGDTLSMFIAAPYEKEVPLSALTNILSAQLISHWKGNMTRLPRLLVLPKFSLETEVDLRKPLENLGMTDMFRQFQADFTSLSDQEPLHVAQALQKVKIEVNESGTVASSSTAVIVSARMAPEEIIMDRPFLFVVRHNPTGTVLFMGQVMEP
Test: PAI-1/uPA assay (residual uPA activity, fluorescent substrate SpectroFluor)
Assay type: biochemical
Settings: at the concentration given; percent of activity of untreated PAI-1

The examples below pair each entry with its known result.
compound: O=C(N[C@@H](Cc1csc2ccccc12)C(=O)O)[C@@H]1CCCNC1 [Compound Q012129]
system: wildtype human PAI-1 (Homo sapiens)
Percent PAI-1 inhibition: 23
--
compound: CCOC(=O)[C@H](Cc1csc2ccccc12)NC(=O)COc1ccc2c(C(F)(F)F)cc(=O)oc2c1 [Compound Q012124]
system: wildtype human PAI-1 (Homo sapiens)
Percent PAI-1 inhibition: 13
--
compound: COc1cc(CNCc2ccc(C(=O)O)cc2)cc(CN2CCN(c3ccccn3)CC2)c1O [Compound Q012136]
system: wildtype human PAI-1 (Homo sapiens)
Percent PAI-1 inhibition: 15
--
compound: CCOC(=O)[C@H](CCCNC(=N)NS(=O)(=O)c1c(C)cc(OC)c(C)c1C)NC(=O)N[C@@H](Cc1csc2ccccc12)C(=O)OCC [Compound Q012059]
system: wildtype human PAI-1 (Homo sapiens)
Percent PAI-1 inhibition: 23
--
compound: CN(C)CCSc1ccc(/C=C2\NC(=O)N(Cc3ccc(OCc4ccccc4)cc3)C2=O)s1 [Compound Q013021]
system: wildtype human PAI-1 (Homo sapiens)
Percent PAI-1 inhibition: 25

IN: State the recorded Percent PAI-1 inhibition for this entry: CCOC(=O)[C@H](Cc1ccccc1)NC(=O)Nc1ccc2c(C)cc(=O)oc2c1 [Compound Q012053]
OUT: 44

IN: Look up Percent PAI-1 inhibition: COc1cc(CNc2ccccn2)cc(CN2CCN(c3ccccn3)CC2)c1O [Compound Q012143]
OUT: 22

IN: Give the measured Percent PAI-1 inhibition of CC(C)(C)OC(=O)Nc1ccc(O)c(C(=O)NCCOC(=O)NCCNC(=O)c2cc(OCc3ccccc3)ccc2OCc2ccccc2)c1 [Compound Q012052] .
OUT: 45

IN: Requested field: Percent PAI-1 inhibition. Item: CC(C)(C)OC(=O)N1CCC[C@@H](C(=O)N[C@@H](Cc2csc3ccccc23)C(=O)O)C1 [Compound Q012128]
OUT: 14.5

IN: Given the entry CCOC(=O)[C@H](Cc1csc2ccccc12)NC(=O)[C@@H]1CCCNC1 [Compound Q012127] , report its measured Percent PAI-1 inhibition.
OUT: 13

----------
Tested on: HCT-116
readout.name: GI50 (µM)
Write down the numeric answer in µM and omit the unit.

Would you please look over these solved cases?
compound: COc1cc(CNCC2CCN(C(=O)OC(C)(C)C)CC2)cc(CN2CCN(c3ccccn3)CC2)c1O
value.unit: µM
GI50: 10.8
//
compound: COc1cc(CNc2ccc(C(=O)OC(C)(C)C)cc2)cc(CN2CCN(c3ccccn3)CC2)c1O [Compound Q012145T]
value.unit: µM
GI50: 15.2

IN: For the record CCOC(=O)[C@H](Cc1ccccc1)NCc1cc(CN2CCN(c3ccccn3)CC2)c(O)c(OC)c1 [Compound Q012147T] , what value of GI50 is listed for HCT-116?
OUT: 34.4

IN: State its GI50 on HCT-116: CCOC(=O)c1ccc(CNCc2cc(CN3CCN(c4ccccn4)CC3)c(O)c(OC)c2)cc1 [Compound Q012135T]
OUT: 18.6

----------
Parameter 'readout' = GI50; parameter 'system' = HT29.
Expressed in µM, but write only the number.

Sample answers from the record:
compound: COc1cc(CNCC2CCN(C(=O)OC(C)(C)C)CC2)cc(CN2CCN(c3ccccn3)CC2)c1O
GI50 (µM): 3.11
//
compound: CCOC(=O)c1ccc(CNCc2cc(CN3CCN(c4ccccn4)CC3)c(O)c(OC)c2)cc1 [Compound Q012135T]
GI50 (µM): 17.1
//
compound: CCOC(=O)[C@H](Cc1ccccc1)NCc1cc(CN2CCN(c3ccccn3)CC2)c(O)c(OC)c1 [Compound Q012147T]
GI50 (µM): 43.2

Now consider the entry below.
IN: For the record COc1cc(CNc2ccc(C(=O)OC(C)(C)C)cc2)cc(CN2CCN(c3ccccn3)CC2)c1O [Compound Q012145T] , what value of GI50 is listed for HT29?
OUT: 12.7

----------
Assay read-out GI50; system under study: CAKI-1.
Numbers only here, please. The scale is µM.

A selection of reference data follows.
compound: CCOC(=O)c1ccc(CNCc2cc(CN3CCN(c4ccccn4)CC3)c(O)c(OC)c2)cc1 [Compound Q012135T]
system: CAKI-1
reported.value: 17.2
//
compound: COc1cc(CNCC2CCN(C(=O)OC(C)(C)C)CC2)cc(CN2CCN(c3ccccn3)CC2)c1O
system: CAKI-1
reported.value: 22.8

IN: Query GI50 on CAKI-1 for `CC(C)(C)OC(=O)Nc1ccc(O)c(C(=O)NCCOC(=O)NCCNC(=O)c2cc(OCc3ccccc3)ccc2OCc2ccccc2)c1`
OUT: 98

----------
Entries below carry reported GI50 on DU-145.

Solved entries:
molecule: CCOC(=O)[C@H](Cc1ccccc1)NCc1cc(CN2CCN(c3ccccn3)CC2)c(O)c(OC)c1 [Compound Q012147T]
system: DU-145
GI50: > 100 µM
--
molecule: CC(C)(C)OC(=O)Nc1ccc(O)c(C(=O)NCCOC(=O)NCCNC(=O)c2cc(OCc3ccccc3)ccc2OCc2ccccc2)c1 [Compound Q012052]
system: DU-145
GI50: > 100 µM
--
molecule: COc1cc(CNCC2CCN(C(=O)OC(C)(C)C)CC2)cc(CN2CCN(c3ccccn3)CC2)c1O [Compound Q012132]
system: DU-145
GI50: 38.8 µM

IN: GET /values?readout=GI50&item= COc1cc(CNc2ccc(C(=O)OC(C)(C)C)cc2)cc(CN2CCN(c3ccccn3)CC2)c1O [Compound Q012145T]
OUT: > 100 µM

IN: Recorded GI50 for CCOC(=O)c1ccc(CNCc2cc(CN3CCN(c4ccccn4)CC3)c(O)c(OC)c2)cc1 [Compound Q012135T] , please?
OUT: 17 µM

----------
Target: PAI-1 interaction with vitronectin (Homo sapiens)
Sequence (P05121 24-402): as above
Experiment: PAI-1 vitronectin interaction ELISA
Settings: 15 nM PAI-1, vitronectin coated plates
Quick list: IC50 per entry.
Numeric only. Scale: µM

molecule: COc1cc(CNCCCn2ccnc2)cc(CN2CCN(c3ncccn3)CC2)c1O [Compound Q012110]
reported.value: 340

Attention now turns to another entry.
IN: I am curious: what IC50 value has been reported for CCOC(=O)[C@H](CCCNC(=N)NS(=O)(=O)c1c(C)cc(OC)c(C)c1C)NC(=O)N[C@@H](Cc1csc2ccccc12)C(=O)OCC [Compound Q012059] ?
OUT: 910
